Measured values drawn from patent US20110172296A1 for this set.

System: BALB/c mice
procedure-summary: Tolerability in BALB/c mice: plasma transaminases ALT and AST (Example 7)
cond: 25 mg/kg twice a week, Week 4
In the oligonucleotide strings, read from the 5' end, every base follows the letter of its sugar. An asterisk marks phosphorothioate; unmarked linkages are phosphodiester. Other units and linkages are bracketed, terminal groups are in braces. A string of capitals states the bases alone. e = 2'-O-(2-methoxyethyl) (MOE); [5mC] = 5-methylcytosine; d = 2'-deoxy (DNA)
Form field: alanine transaminase levels (one value per entry).
measured-parameter: alanine transaminase levels (IU/L)

# substance, quantity-unit, reported
records = [
    ("413982 (antisense GCCTCCGGCTCCCAGCGGCA; sugars from the 5' end e2 d13 e5, backbone and methylation of C not given here) [compound 413982]", "IU/L", 140),
    ("414035 (antisense GTCCTTAAATACAGCCCCCA; sugars from the 5' end e2 d13 e5, backbone and methylation of C not given here) [compound 414035]", "IU/L", 45),
    ("414036 (antisense GTGTCCTTAAATACAGCCCC; sugars from the 5' end e2 d13 e5, backbone and methylation of C not given here) [compound 414036]", "IU/L", 61),
    ("414040 (antisense e[5mC]*eT*d[5mC]*dT*d[5mC]*dT*d[5mC]*d[5mC]*dA*dT*d[5mC]*dT*dT*dT*dA*eA*eT*eG*eG*eG) [compound 414040]", "IU/L", 2248),
]

###

Tested on: BALB/c mice
procedure-summary: Tolerability in BALB/c mice: plasma transaminases ALT and AST (Example 7)
cond: 50 mg/kg twice a week, plasma, Week 4
In the oligonucleotide strings, read from the 5' end, every base follows the letter of its sugar. An asterisk marks phosphorothioate; unmarked linkages are phosphodiester. Other units and linkages are bracketed, terminal groups are in braces. A string of capitals states the bases alone. e = 2'-O-(2-methoxyethyl) (MOE); [5mC] = 5-methylcytosine; d = 2'-deoxy (DNA)
Form field: aspartate transaminase levels (one value per entry).
measured-parameter: aspartate transaminase levels (IU/L)

# substance, target-entity, quantity-unit, reported
records = [
    ("413982 (antisense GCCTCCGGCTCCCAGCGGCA; sugars from the 5' end e2 d13 e5, backbone and methylation of C not given here) [compound 413982]", "BALB/c mice", "IU/L", 460),
    ("414036 (antisense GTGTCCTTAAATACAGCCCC; sugars from the 5' end e2 d13 e5, backbone and methylation of C not given here) [compound 414036]", "BALB/c mice", "IU/L", 467),
    ("414035 (antisense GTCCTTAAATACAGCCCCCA; sugars from the 5' end e2 d13 e5, backbone and methylation of C not given here) [compound 414035]", "BALB/c mice", "IU/L", 155),
    ("414040 (antisense e[5mC]*eT*d[5mC]*dT*d[5mC]*dT*d[5mC]*d[5mC]*dA*dT*d[5mC]*dT*dT*dT*dA*eA*eT*eG*eG*eG) [compound 414040]", "BALB/c mice", "IU/L", 2237),
]

###

Form field: percent inhibition of TGF-beta1 mRNA relative to untreated control cells (one value per entry).
System: human TGF-beta1 mRNA
procedure-summary: Dose-dependent confirmation of antisense inhibition of human TGF-beta1 in HuVEC cells, electroporation (Example 6)
Assay type: cell-based
cond: 20 nM oligonucleotide
In the oligonucleotide strings, read from the 5' end, every base follows the letter of its sugar. An asterisk marks phosphorothioate; unmarked linkages are phosphodiester. Other units and linkages are bracketed, terminal groups are in braces. A string of capitals states the bases alone. e = 2'-O-(2-methoxyethyl) (MOE); [5mC] = 5-methylcytosine; d = 2'-deoxy (DNA)
measured-parameter: percent inhibition of TGF-beta1 mRNA relative to untreated control cells

# substance, target-entity, reported
measured = [
    ("414040 (antisense e[5mC]*eT*d[5mC]*dT*d[5mC]*dT*d[5mC]*d[5mC]*dA*dT*d[5mC]*dT*dT*dT*dA*eA*eT*eG*eG*eG) [compound 414040]", "human TGF-beta1 mRNA", "94%"),
    ("413982 (antisense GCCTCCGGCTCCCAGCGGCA; sugars from the 5' end e2 d13 e5, backbone and methylation of C not given here) [compound 413982]", "human TGF-beta1 mRNA", "96%"),
    ("414035 (antisense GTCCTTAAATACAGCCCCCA; sugars from the 5' end e2 d13 e5, backbone and methylation of C not given here) [compound 414035]", "human TGF-beta1 mRNA", "94%"),
    ("414036 (antisense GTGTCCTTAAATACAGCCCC; sugars from the 5' end e2 d13 e5, backbone and methylation of C not given here) [compound 414036]", "human TGF-beta1 mRNA", "92%"),
]

###

Form field: percent inhibition of TGF-beta1 (one value per entry).
Test system: human TGF-beta1 mRNA
procedure-summary: Dose-dependent antisense inhibition of human TGF-beta1 in HuVEC cells, Lipofectamine 2000, 0.9375-30 nM (Example 3)
Format: cell-based
cond: 3.75 nM, Lipofectamine 2000
In the oligonucleotide strings, read from the 5' end, every base follows the letter of its sugar. An asterisk marks phosphorothioate; unmarked linkages are phosphodiester. Other units and linkages are bracketed, terminal groups are in braces. A string of capitals states the bases alone. e = 2'-O-(2-methoxyethyl) (MOE); [5mC] = 5-methylcytosine; d = 2'-deoxy (DNA)

# substance, target-entity, percent inhibition of TGF-beta1 [%]
measured = [
    ("414037 (antisense eG*eG*dG*dT*dG*dT*d[5mC]*d[5mC]*dT*dT*dA*dA*dA*dT*dA*e[5mC]*eA*eG*e[5mC]*e[5mC]) [compound 414037]", "human TGF-beta1 mRNA", 87),
    ("414058 (antisense eA*eG*dG*dT*d[5mC]*dA*dA*dG*d[5mC]*d[5mC]*dA*dT*dG*dT*dG*eG*e[5mC]*eA*e[5mC]*e[5mC]) [compound 414058]", "human TGF-beta1 mRNA", 78),
    ("413979 (antisense eG*eG*d[5mC]*dT*d[5mC]*d[5mC]*d[5mC]*dA*dG*d[5mC]*dG*dG*d[5mC]*dA*dA*e[5mC]*eG*eG*eA*eA) [compound 413979]", "human TGF-beta1 mRNA", 80),
]

###

Tested on: BALB/c mice
procedure-summary: Tolerability in BALB/c mice: plasma transaminases ALT and AST (Example 7)
cond: 25 mg/kg twice a week, Week 2
In the oligonucleotide strings, read from the 5' end, every base follows the letter of its sugar. An asterisk marks phosphorothioate; unmarked linkages are phosphodiester. Other units and linkages are bracketed, terminal groups are in braces. A string of capitals states the bases alone. e = 2'-O-(2-methoxyethyl) (MOE); [5mC] = 5-methylcytosine; d = 2'-deoxy (DNA)
Form field: alanine transaminase levels (one value per entry).
measured-parameter: alanine transaminase levels (IU/L)

# substance, quantity-unit, reported
data = [
    ("414036 (antisense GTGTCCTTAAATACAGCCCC; sugars from the 5' end e2 d13 e5, backbone and methylation of C not given here) [compound 414036]", "IU/L", 70),
    ("413982 (antisense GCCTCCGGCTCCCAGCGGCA; sugars from the 5' end e2 d13 e5, backbone and methylation of C not given here) [compound 413982]", "IU/L", 59),
    ("414040 (antisense e[5mC]*eT*d[5mC]*dT*d[5mC]*dT*d[5mC]*d[5mC]*dA*dT*d[5mC]*dT*dT*dT*dA*eA*eT*eG*eG*eG) [compound 414040]", "IU/L", 178),
    ("414035 (antisense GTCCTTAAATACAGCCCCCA; sugars from the 5' end e2 d13 e5, backbone and methylation of C not given here) [compound 414035]", "IU/L", 56),
]

###

Form field: % inhibition (one value per entry).
Tested on: human TGF-beta1 mRNA
procedure-summary: Antisense inhibition of human TGF-beta1 mRNA in HuVEC cells, single 10 nM dose, Lipofectamine 2000 (Example 2)
Type: cell-based
cond: 10 nM oligonucleotide, HuVEC, relative to untreated control cells; gapmers targeted to SEQ ID NO: 2
In the oligonucleotide strings, read from the 5' end, every base follows the letter of its sugar. An asterisk marks phosphorothioate; unmarked linkages are phosphodiester. Other units and linkages are bracketed, terminal groups are in braces. A string of capitals states the bases alone. e = 2'-O-(2-methoxyethyl) (MOE); [5mC] = 5-methylcytosine; d = 2'-deoxy (DNA)
measured-parameter: % inhibition

# substance, measured-parameter, reported
measured = [
    ("414069 (antisense e[5mC]*eT*dA*dT*dG*dA*dG*dT*dT*dA*dA*d[5mC]*dA*dT*dT*e[5mC]*e[5mC]*e[5mC]*eT*e[5mC]) [compound 414069]", "% inhibition", "62%"),
    ("414071 (antisense eT*eA*dG*dA*dA*dG*dT*d[5mC]*dA*dT*dT*dT*d[5mC]*dT*dA*eA*eT*eG*eA*eT) [compound 414071]", "% inhibition", "0%"),
    ("414073 (antisense e[5mC]*eT*dT*d[5mC]*d[5mC]*d[5mC]*d[5mC]*dA*dA*dA*d[5mC]*dA*dG*dG*d[5mC]*eT*eT*e[5mC]*e[5mC]*eA) [compound 414073]", "% inhibition", "65%"),
    ("414081 (antisense eG*e[5mC]*dT*dT*dG*dG*dG*dA*d[5mC]*dT*d[5mC]*dA*dG*d[5mC]*dA*eT*eT*eG*eA*e[5mC]) [compound 414081]", "% inhibition", "49%"),
    ("414051 (antisense eG*eT*d[5mC]*dA*dG*dT*dG*dT*dT*dA*dA*dA*dG*dG*dA*eA*e[5mC]*e[5mC]*eT*e[5mC]) [compound 414051]", "% inhibition", "36%"),
    ("414066 (antisense eG*eT*dG*dG*dA*d[5mC]*d[5mC]*dT*dT*dG*dT*dA*dA*d[5mC]*d[5mC]*eA*eG*e[5mC]*e[5mC]*eG) [compound 414066]", "% inhibition", "80%"),
    ("414070 (antisense eG*eA*d[5mC]*dT*dA*dA*dT*dG*dT*dT*d[5mC]*dT*dA*dT*dA*eA*eA*e[5mC]*e[5mC]*e[5mC]) [compound 414070]", "% inhibition", "54%"),
    ("414074 (antisense eA*eA*dG*dT*dG*dA*d[5mC]*d[5mC]*d[5mC]*d[5mC]*dA*dG*dG*dA*d[5mC]*eA*eA*eA*e[5mC]*eA) [compound 414074]", "% inhibition", "24%"),
    ("414077 (antisense eT*e[5mC]*d[5mC]*dA*dG*dG*d[5mC]*d[5mC]*dT*dT*dT*dG*d[5mC]*dA*d[5mC]*eA*eG*eG*e[5mC]*eT) [compound 414077]", "% inhibition", "71%"),
    ("414112 (antisense eG*eG*d[5mC]*dA*dG*d[5mC]*dA*dT*d[5mC]*dA*d[5mC]*d[5mC]*dT*dG*dG*eG*eA*eA*e[5mC]*eT) [compound 414112]", "% inhibition", "57%"),
    ("414057 (antisense eT*eA*d[5mC]*dA*d[5mC]*dT*dG*dG*dT*d[5mC]*dA*d[5mC]*dT*d[5mC]*dA*eA*eT*e[5mC]*eA*eT) [compound 414057]", "% inhibition", "58%"),
]
